Type: in vivo, broiler chickens
conditionInfo: Ross hybrid (Cornish × Plymouth Rock), plasma, po, 20 mg/kg, Cmax, enrofloxacin in plasma; enrofloxacin p.o. 20 mg/kg + cyclosporine A p.o. 50 mg/kg; geometric mean (min–max)
measurementLabel: Cmax (ng/mL)
Entry rule: numbers only, all in ng/mL.

[Q] For the compound CCN1CCN(c2cc3c(cc2F)c(=O)c(C(=O)O)cn3C2CC2)CC1 [Enrofloxacin, enrofloxacin] , what Cmax is on record?
[A] 5620
